Target: T1, cynomolgus CCR8 (cynomolgus, UniProt G7NYJ2 1-355)
T1 construct: whole, on cells
T1 sequence (G7NYJ2 entry or part of it): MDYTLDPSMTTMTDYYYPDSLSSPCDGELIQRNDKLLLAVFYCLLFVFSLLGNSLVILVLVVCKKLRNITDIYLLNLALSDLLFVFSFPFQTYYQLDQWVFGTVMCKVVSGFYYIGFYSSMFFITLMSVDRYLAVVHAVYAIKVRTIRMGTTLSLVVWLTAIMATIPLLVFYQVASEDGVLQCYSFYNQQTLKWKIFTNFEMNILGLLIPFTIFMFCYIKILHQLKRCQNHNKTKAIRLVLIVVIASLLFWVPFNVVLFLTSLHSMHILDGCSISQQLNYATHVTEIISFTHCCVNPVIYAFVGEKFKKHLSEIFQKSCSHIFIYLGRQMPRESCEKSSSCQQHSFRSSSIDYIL
Assay: FACS on HEK293-cynomolgus CCR8 cells
Reported pEC50 by item:
Convention used: pEC50 is expressed as -log10 of the molar concentration.

Example entries begin here.
>>> observed_value("Hu149-4 (antibody, human IgG1, V domains shown, humanized, human IgG1; also called Hu149-4 HuIgG1) VH: EVQLVESGGGLVQPGGSLKLSCAASGFTFNTYAMNWVRQASGKGLEWVGRIRSKSNFYATYYAASVKGRFTISRDDSKNTAYLQMNSLKTEDTAVYYCTRGRDYGSSYAMDYWGQGTLVTVSS VL: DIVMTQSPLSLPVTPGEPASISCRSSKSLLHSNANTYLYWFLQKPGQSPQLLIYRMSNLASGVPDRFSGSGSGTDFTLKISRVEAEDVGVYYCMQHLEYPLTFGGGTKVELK")
10.09
>>> observed_value("Hu149-1 (antibody, V domains shown, humanized IgG, detected with anti-human IgG) VH: EVQLVESGGGLVQPGGSLKLSCAASGFTFNTYAMNWVRQASGKGLEWVGRIRSKSNFYATYYAASVKGRFTISRDDSKNTAYLQMNSLKTEDTAVYYCVRGRDYGSSYAMDYWGQGTLVTVSS VL: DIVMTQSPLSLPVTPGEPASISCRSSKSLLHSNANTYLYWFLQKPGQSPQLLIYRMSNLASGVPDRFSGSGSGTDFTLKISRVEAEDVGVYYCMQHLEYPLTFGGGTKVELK")
9.24
>>> observed_value("CM149 (antibody, V domains shown, CM149 is not defined in words; also called CM149 HuIgG1; parental antibody CM149) VH: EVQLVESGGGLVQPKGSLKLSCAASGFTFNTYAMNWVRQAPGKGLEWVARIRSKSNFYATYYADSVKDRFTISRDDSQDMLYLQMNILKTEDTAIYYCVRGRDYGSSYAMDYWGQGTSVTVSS VL: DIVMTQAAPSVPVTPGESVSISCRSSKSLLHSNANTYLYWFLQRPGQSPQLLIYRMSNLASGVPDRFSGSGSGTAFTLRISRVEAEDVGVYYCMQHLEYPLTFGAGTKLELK")
9.63
>>> observed_value("Hu149-3 (antibody, V domains shown, humanized IgG) VH: EVQLVESGGGLVQPGGSLKLSCAASGFTFNTYAMNWVRQASGKGLEWVGRIRSKSNFYATAYAASVKGRFTISRDDSKNTAYLQMNSLKTEDTAVYYCVRGRDYGSSYAMDYWGQGTLVTVSS VL: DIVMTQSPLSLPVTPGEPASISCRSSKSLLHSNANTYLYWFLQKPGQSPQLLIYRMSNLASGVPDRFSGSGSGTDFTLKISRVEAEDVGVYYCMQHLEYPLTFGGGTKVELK")
9.69

Lookup result for Hu149-2 (antibody, V domains shown, humanized IgG) VH: EVQLVESGGGLVQPGGSLKLSCAASGFTFNTYAMHWVRQASGKGLEWVGRIRSKSNFYATYYAASVKGRFTISRDDSKNTAYLQMNSLKTEDTAVYYCVRGRDYGSSYAMDYWGQGTLVTVSS VL: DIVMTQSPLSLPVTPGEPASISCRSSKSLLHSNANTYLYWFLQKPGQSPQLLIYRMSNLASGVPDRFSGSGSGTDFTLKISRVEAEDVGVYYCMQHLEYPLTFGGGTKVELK ; measured pEC50: 6.84
